Target: T1, NativeRPtag(large)_with_Tags_and_Cys (Thermoanaerobacter tengcongensis)
T1 chain: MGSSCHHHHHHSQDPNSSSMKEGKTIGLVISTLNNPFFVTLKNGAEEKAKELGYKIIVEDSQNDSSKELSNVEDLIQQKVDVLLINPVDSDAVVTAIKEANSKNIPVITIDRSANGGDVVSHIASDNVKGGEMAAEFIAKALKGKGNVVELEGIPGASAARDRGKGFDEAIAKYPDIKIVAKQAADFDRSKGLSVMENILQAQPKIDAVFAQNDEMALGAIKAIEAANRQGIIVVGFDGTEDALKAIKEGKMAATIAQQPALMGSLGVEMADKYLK
Test: fluorescence anisotropy; NH4SO4 (3M)
experimental.endpoint: pKd
Formally, pKd is defined as -log10 of the concentration c, with c in mol/L.

Query string: Dear colleague, I am looking for the recorded pKd of the following binder: PAELKLITK (modifications not checked) [RPtag(small) Nd8, Cd4]
Result string: 8.55
